Attribution: paper PMC8892681

The reader will find reported Tmax values listed item by item below.
- test_summary: Pharmacokinetics and urinary/faecal recovery after oral administration in rats
- Type: in vivo, Sprague Dawley rats
- run_conditions: male, Sprague Dawley, rat, plasma, po, 30 mg/kg
Give just the number in h; leave the unit off.

I'd like to know its Tmax. The molecule in question is C[N+](C)(C)CCc1ccc(Oc2ccc(-c3noc(-c4ccc(O)cc4)n3)cc2)cc1.[I-] [26a]
2.8

More entries:
I'd like to know its Tmax. The molecule in question is Cl.NCCc1ccc(Oc2ccc(-c3noc(-c4ccc(O)cc4)n3)cc2)cc1 [15e]
2.5
